Data provenance: patent US6436933B1

assayed target: UniProtKB P15917
assay procedure: biochemical
Format: biochemical
attribute measured: Activity by plate, % @ 100 (% @ 100)

[[record]]
compound = "O=c1c(Cc2ccccc2)nc(-c2ccc(F)cc2)cn1O [Compound 15]"
assayed_target = "UniProtKB P15917"
attribute_measured = "Activity by plate, % @ 100"
endpoint_value = 33

[[record]]
compound = "O=c1c(Cc2ccccc2)nc(-c2ccc(Cl)c(Cl)c2)cn1O [Compound 39]"
assayed_target = "UniProtKB P15917"
attribute_measured = "Activity by plate, % @ 100"
endpoint_value = 45

[[record]]
compound = "CCCCCc1ccc(-c2cn(O)c(=O)c(Cc3ccccc3)n2)cc1 [Compound 42]"
assayed_target = "UniProtKB P15917"
attribute_measured = "Activity by plate, % @ 100"
endpoint_value = 16

[[record]]
compound = "O=c1c(Cc2ccc(-c3ccccc3)cc2)nc(-c2ccc(N3CCOCC3)cc2)cn1O [Compound 26]"
assayed_target = "UniProtKB P15917"
attribute_measured = "Activity by plate, % @ 100"
endpoint_value = 37


----------
assayed target: Anthrax Lethal Factor (ALF) (Bacillus anthracis)
Sequence (P15917 34-809 limits assumed): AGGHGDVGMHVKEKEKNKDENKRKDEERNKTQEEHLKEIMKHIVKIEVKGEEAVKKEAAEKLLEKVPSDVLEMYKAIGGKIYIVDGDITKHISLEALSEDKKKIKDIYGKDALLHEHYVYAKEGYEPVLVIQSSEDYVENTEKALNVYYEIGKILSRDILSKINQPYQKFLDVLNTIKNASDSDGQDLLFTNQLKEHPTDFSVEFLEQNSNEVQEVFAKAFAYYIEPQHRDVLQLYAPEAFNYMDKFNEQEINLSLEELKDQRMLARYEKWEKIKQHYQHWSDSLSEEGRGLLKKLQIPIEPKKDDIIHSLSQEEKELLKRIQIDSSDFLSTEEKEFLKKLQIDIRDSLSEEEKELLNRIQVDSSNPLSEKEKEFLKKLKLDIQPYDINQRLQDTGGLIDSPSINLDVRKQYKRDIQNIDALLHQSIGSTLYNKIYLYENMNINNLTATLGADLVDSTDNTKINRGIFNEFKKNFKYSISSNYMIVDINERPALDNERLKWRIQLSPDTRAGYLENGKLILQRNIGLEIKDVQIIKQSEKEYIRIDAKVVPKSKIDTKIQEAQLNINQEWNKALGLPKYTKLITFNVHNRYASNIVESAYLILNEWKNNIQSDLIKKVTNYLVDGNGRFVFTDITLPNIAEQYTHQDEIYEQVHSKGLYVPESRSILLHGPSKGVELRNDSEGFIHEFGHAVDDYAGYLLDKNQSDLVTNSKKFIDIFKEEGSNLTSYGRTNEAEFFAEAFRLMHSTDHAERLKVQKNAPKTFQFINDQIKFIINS
assay procedure: biochemical
Type: biochemical
Reported Activity by plate, % @ 100 by item:
attribute measured: Activity by plate, % @ 100 (% @ 100)

[[record]]
molecule = "O=c1c(Cc2ccccc2)nc(-c2cccs2)cn1O [Compound 16]"
endpoint_value = 33

[[record]]
molecule = "O=c1c(Cc2ccccc2)nc(-c2ccc(Br)cc2)cn1O [Compound 20]"
endpoint_value = 63

[[record]]
molecule = "O=c1c(Cc2ccc(-c3ccccc3)cc2)nc(-c2ccc(C3CCCCC3)cc2)cn1O [Compound 29]"
endpoint_value = 59

[[record]]
molecule = "O=c1c(Cc2ccc(-c3ccccc3)cc2)nc(-c2ccc(C(F)(F)F)cc2)cn1O [Compound 48]"
endpoint_value = 25

[[record]]
molecule = "O=c1c(Cc2ccc(-c3ccccc3)cc2)nc(-c2ccc(F)cc2)cn1O [Compound 27]"
endpoint_value = 12

[[record]]
molecule = "N#Cc1ccc(-c2cn(O)c(=O)c(Cc3ccc(-c4ccccc4)cc3)n2)cc1 [Compound 33]"
endpoint_value = 51

[[record]]
molecule = "N#Cc1ccc(-c2cn(O)c(=O)c(Cc3ccccc3)n2)cc1 [Compound 24]"
endpoint_value = 41

[[record]]
molecule = "Cc1ccc(-c2cn(O)c(=O)c(Cc3ccccc3)n2)cc1 [Compound 41]"
endpoint_value = 13

[[record]]
molecule = "Cc1cc(-c2cn(O)c(=O)c(Cc3ccccc3)n2)ccc1Cl [Compound 40]"
endpoint_value = 18


----------
Let's go through some recorded IC50 values for Anthrax Lethal Factor (ALF) (Bacillus anthracis, UniProt P15917) together.
attribute measured: IC50 (µM)

[[record]]
compound = "Cc1c(-c2ccccc2)nc(Cc2ccc(-c3ccccc3)cc2)c(=O)n1O [Compound 12]"
assayed_target = "Anthrax Lethal Factor (ALF) (Bacillus anthracis, UniProt P15917)"
endpoint_value = 15

[[record]]
compound = "O=c1c(Cc2ccccc2)nc(-c2ccccc2)cn1O [Compound 7]"
assayed_target = "Anthrax Lethal Factor (ALF) (Bacillus anthracis, UniProt P15917)"
endpoint_value = 15

[[record]]
compound = "O=c1c(Cc2ccccc2)nc(-c2ccccc2)c(-c2ccccc2)n1O [Compound 5]"
assayed_target = "Anthrax Lethal Factor (ALF) (Bacillus anthracis, UniProt P15917)"
endpoint_value = 6

[[record]]
compound = "O=c1c(Cc2ccccc2)nc(-c2ccc(C3CCCCC3)cc2)cn1O [Compound 18]"
assayed_target = "Anthrax Lethal Factor (ALF) (Bacillus anthracis, UniProt P15917)"
endpoint_value = 8

[[record]]
compound = "Cc1c(-c2ccccc2)nc(Cc2ccccc2)c(=O)n1O [Compound 6]"
assayed_target = "Anthrax Lethal Factor (ALF) (Bacillus anthracis, UniProt P15917)"
endpoint_value = 70

[[record]]
compound = "O=c1c(Cc2ccc(-c3ccccc3)cc2)nc(-c2ccc(-c3ccccc3)cc2)cn1O [Compound 28]"
assayed_target = "Anthrax Lethal Factor (ALF) (Bacillus anthracis, UniProt P15917)"
endpoint_value = 12

[[record]]
compound = "O=c1c(Cc2ccc(-c3ccccc3)cc2)nc(-c2ccc(Br)cc2)cn1O [Compound 31]"
assayed_target = "Anthrax Lethal Factor (ALF) (Bacillus anthracis, UniProt P15917)"
endpoint_value = 5

